# ΔH annotations
# TARGET_OR_TEST_SYSTEM: UniProtKB A0ABY1S640
# Sequence (A0ABY1S640 entry or part of it): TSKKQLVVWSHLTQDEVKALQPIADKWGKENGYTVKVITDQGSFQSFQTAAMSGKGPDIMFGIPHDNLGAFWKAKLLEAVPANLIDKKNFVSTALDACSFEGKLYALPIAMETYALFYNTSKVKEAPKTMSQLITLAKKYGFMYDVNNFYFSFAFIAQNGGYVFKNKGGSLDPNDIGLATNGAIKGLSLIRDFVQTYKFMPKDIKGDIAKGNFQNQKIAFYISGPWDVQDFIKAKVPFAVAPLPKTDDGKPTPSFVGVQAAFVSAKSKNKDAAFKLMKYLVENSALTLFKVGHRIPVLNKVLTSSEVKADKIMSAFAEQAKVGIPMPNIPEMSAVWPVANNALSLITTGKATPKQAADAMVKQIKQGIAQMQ
# TEST_DETAILS: biochemical
# Type: binding
# ASSAY_CONDITIONS: ITC 25 °C
Report the figure in kJ/mol without appending any unit label.

Below, 3 compounds whose answers are already recorded.
compound="OC[C@H]1O[C@H](O[C@H]2[C@H](O)[C@@H](O)[C@@H](O[C@H]3[C@H](O)[C@@H](O)[C@@H](O[C@H]4[C@H](O)[C@@H](O)[C@@H](O[C@H]5[C@H](O)[C@@H](O)[C@@H](O[C@H]6[C@H](O)[C@@H](O)[C@@H](O[C@H]7[C@H](O)[C@@H](O)C(O)O[C@@H]7CO)O[C@@H]6CO)O[C@@H]5CO)O[C@@H]4CO)O[C@@H]3CO)O[C@@H]2CO)[C@H](O)[C@@H](O)[C@@H]1O (stereo partly shown)" reported_property=ΔH observed=-30.5
compound="OC[C@H]1O[C@H](O[C@H]2[C@H](O)[C@@H](O)[C@@H](O[C@H]3[C@H](O)[C@@H](O)C(O)O[C@@H]3CO)O[C@@H]2CO)[C@H](O)[C@@H](O)[C@@H]1O (stereo partly shown)" reported_property=ΔH observed=-103.8
compound="OC[C@H]1O[C@H](O[C@H]2[C@H](O)[C@@H](O)[C@@H](O[C@H]3[C@H](O)[C@@H](O)[C@@H](O[C@H]4[C@H](O)[C@@H](O)[C@@H](O[C@H]5[C@H](O)[C@@H](O)C(O)O[C@@H]5CO)O[C@@H]4CO)O[C@@H]3CO)O[C@@H]2CO)[C@H](O)[C@@H](O)[C@@H]1O (stereo partly shown)" reported_property=ΔH observed=-27.3

We now examine a further compound.
For this compound ( OC[C@H]1O[C@H](O[C@H]2[C@H](O)[C@@H](O)[C@@H](O[C@H]3[C@H](O)[C@@H](O)[C@@H](O[C@H]4[C@H](O)[C@@H](O)C(O)O[C@@H]4CO)O[C@@H]3CO)O[C@@H]2CO)[C@H](O)[C@@H](O)[C@@H]1O (stereo partly shown) ), measured ΔH is -41.4

Values from paper PMC12096829
